test system: Hepatitis C virus; experiment: Antiviral activity against Hepatitis C virus genotype 1b infected in human HuH5.2 cells after 72 hrs by luciferase reporter gene assay; format: functional, cell-based, Hepacivirus hominis; conditions: Hepatitis C virus, genotype 1b, Huh-5-2, 72 h
measurement.kind: EC50 (nM)

a. O=C(NNc1ncnc2sc3c(c12)CCCC3)c1cccs1
b. C/C(=N/Nc1ncnc2sc3c(c12)CCC3)c1cnccn1
Enquiry: Exercise: compare a and b ; which one has the greater EC50? Mark your selection by writing its label.
Return: a

1. C/C(=N\Nc1ncnc2sc3c(c12)CCCC3)c1cc2ccccc2[nH]1
2. C/C(=N/Nc1ncnc2sc(C)c(C)c12)c1ccccc1O
Enquiry: Hi there! Just curious which has the higher EC50 between 1 and 2 . When you have decided, please share the label of that item.
Return: 1
(1: 61200 nM, 2: 384 nM)

* * *

assay: Cytotoxicity against human HuH5.2 cells assessed as reduction in metabolic activity after 72 hrs by MTS assay; assay type: toxicity, cell-based, Huh-5-2; details: HuH5.2 cells
measurement.kind: CC50 at 72 h (µM)
Kindly provide the numeric value in µM only, without the unit symbol.

Solved entries (count: 6):
Per the record, O=C(NNc1ncnc2sc3ccccc3c12)c1cc(O)ccc1O has CC50 at 72 h of 46.5

So, C/C(=N\Nc1ncnc2sc3ccccc3c12)c1cnccn1 ? Its CC50 at 72 h was 1.99

Input C/C(=N/Nc1ncnc2sc3c(c12)CCC3)c1ccccn1 . Output CC50 at 72 h: 14

Input O=C(NNc1ncnc2sc3c(c12)CCCC3)c1ccccn1 . Output CC50 at 72 h: 7.75

// CC50 at 72 h lookup, compound = CCOC(=O)c1cnc2c(ccc3ccccc32)c1Nc1ccc(C(=O)OC)cc1 , result: 56.2

The compound listed as O=C(NNc1ncnc2sc3c(c12)CCCC3)c1ccc2ccccc2n1 has a reported CC50 at 72 h of 40.4

// below: CC50 at 72 h requested for another compound
compound O=S(=O)(NNc1ncnc2sc3c(c12)CCCC3)c1ccccn1 , CC50 at 72 h observed: 145

* * *

experiment: Inhibition of protease domain lacking Hepatitis C virus genotype 1b (con1) C-terminal His-tagged NS3 helicase ATP hydrolysis activity using ATP as substrate preincubated followed by substrate addition measured after 15 mins in presence of poly U RNA by malachite green-based assay; design: species or system Hepatitis C virus (isolate Con1)
pIC50: −log10 of the molar value.
measurement.kind: pIC50

response.value for O=C(O)C1=CC(=C(c2ccc(O)c(C(=O)O)c2)c2ccc(O)c(C(=O)O)c2)C=CC1=O (field: pIC50) = 5.29

a. C/C(=N\Nc1ncnc2sc3c(c12)CCCC3)c1ccccc1O
b. Cc1ccc2nc(-c3ccc4nc(-c5ccc(N)cc5)sc4c3)sc2c1S(=O)(=O)O
c. O=C(NNc1ncnc2sc3c(c12)CCC3)c1ccccc1O
Enquiry: Endpoint returns the given compounds ordered by ascending pIC50. Put the labels in the requested order and list them out.
Return: a, c, b
(a: 3.11, c: 3.48, b: 4.40)

* * *

tested on: Hepatitis C virus; assay: Antiviral activity against Hepatitis C virus genotype 1b infected in human HuH5.2 cells after 72 hrs by luciferase reporter gene assay; assay type: functional, cell-based, Hepacivirus hominis; settings: Hepatitis C virus, genotype 1b, Huh-5-2, 72 h
pEC50: −log10 of the molar value.
measurement.kind: pEC50

Record C/C(=N/Nc1ncnc2sc(Cl)c(C)c12)c1cnccn1 , field pEC50: 7.24

A. CCc1ccc(S(=O)(=O)Nc2cc3c(C(=O)OC)c(C)oc3c3ccccc23)cc1
B. C/C(=N\Nc1ncnc2sc3c(c12)CCCC3)c1cc(Cl)ccc1Cl
Enquiry: Given the two records A and B , choose the one whose pEC50 value is lower. Identify your selection by its label.
Return: B

I. C/C(=N/Nc1ncnc2sc(Cl)c(C)c12)c1ccccc1O
II. Cc1nc(NNC(=O)c2ccccn2)c2c3c(sc2n1)CCCC3
Enquiry: Lower value of pEC50 belongs to which: I or II ? Which one? Tell me its label.
Return: I
(I: 6.77, II: 7.11)

1. O=C(NNc1ncnc2sc3c(c12)CCCC3)c1cccnc1
2. O=C(CCN1C(=O)c2cccc3cccc(c23)C1=O)N1CCN(Cc2ccc3c(c2)OCO3)CC1
3. C/C(=N\Nc1ncnc2sc3c(c12)CCC3)c1cc(O)ccc1O
4. C/C(=N/Nc1ncnc2sc(C)c(C)c12)c1cc(O)ccc1O
Enquiry: // ascending sort on recorded pEC50 Field: ranking. Enter the labels in the order requested.
Return: 1, 2, 3, 4

* * *

experiment: Selectivity index, ratio of CC50 for human HuH5.2 cells to EC50 for hepatitis C virus genotype 1b infected in human HuH5.2 cells; format: toxicity, cell-based; settings: HuH5.2 cells, read-out: Ratio CC50/EC50
Reported selectivity ratio is given for each of the following molecules.
// response body must contain only the number

Completed entries (count: 5):
Value of selectivity ratio reported for the molecule O=C(NNc1ncnc2sc3c(c12)CCCC3)c1ccc2ccccc2n1 is 2.4

Measured selectivity ratio of Oc1ccc(O)c(/C=N/Nc2ncnc3sc4c(c23)CCCC4)c1 : 31.5

Reported selectivity ratio of C/C(=N\Nc1ncnc2sc3c(c12)CCCC3)c1ccc[nH]1 : 3.7

Item: O=C(NNc1ncnc2sc3c(c12)CCCC3)c1ccccn1 | selectivity ratio: 5.27

Data point: C/C(=N\Nc1ncnc2sc3ccccc3c12)c1cnccn1 ; selectivity ratio = 6.4

Further cases:
Form field selectivity ratio, entry C/C(=N\Nc1ncnc2sc3c(c12)CCCC3)c1ccccn1 : 6.9

Looking up C/C(=N\Nc1ncnc2sc3c(c12)CCCC3)c1cnccn1 , I see its selectivity ratio listed as 160

* * *

system: Hepatitis C virus; experiment: Antiviral activity against Hepatitis C virus genotype 1b infected in human HuH5.2 cells after 72 hrs by luciferase reporter gene assay; format: functional, cell-based, Hepacivirus hominis; details: Hepatitis C virus, genotype 1b, Huh-5-2, 72 h
measurement.kind: EC90 (nM)

Measured EC90 of Cc1sc2ncnc(NNC(=O)c3cnccn3)c2c1C : 319

I. O=C(NNc1ncnc2sc3c(c12)CCCC3)c1cc(O)ccc1O
II. O=S(=O)(NNc1ncnc2sc3c(c12)CCCC3)c1ccccn1
III. C/C(=N\Nc1ncnc2sc3ccccc3c12)c1ccccc1O
IV. C/C(=N\Nc1ncnc2sc3c(c12)CCCC3)c1ccccc1O
V. C/C(=N\Nc1ncnc2sc3c(c12)CCCC3)c1nc2ccccc2[nH]1
Enquiry: Reorder: EC90, max to min. Returns: the labels arranged in the requested order.
Return: II, IV, V, I, III
(II: 83200 nM, IV: 20100 nM, V: 7060 nM, I: 945 nM, III: 421 nM)

P. O=C(NNc1ncnc2sc3ccccc3c12)c1ccccn1
Q. O=C(NNc1ncnc2sc3c(c12)CCC3)c1ccccc1O
Enquiry: I'd appreciate it if you could identify which of P and Q has the greater EC90. # reply format: chosen label
Return: P
(P: 1010 nM, Q: 352 nM)

* * *

experiment: Selectivity index, ratio of CC50 for human HuH5.2 cells to EC50 for hepatitis C virus genotype 1b infected in human HuH5.2 cells; assay type: toxicity, cell-based; conditions: HuH5.2 cells, read-out: Ratio CC50/EC50
Recorded selectivity ratio, one value per entry.
Number, no unit, nothing else.

Below are worked cases with known answers.
The compound listed as O=C(NNc1ncnc2sc3c(c12)CCC3)c1cc(O)ccc1O has a reported selectivity ratio of 84.6

Lab book: selectivity ratio of C/C(=N\Nc1ncnc2sc3c(c12)CCCC3)c1cccs1 noted as 2

selectivity ratio for O=S(=O)(NNc1ncnc2sc3c(c12)CCCC3)c1ccccn1 is 3.4

The recorded selectivity ratio for O=C(NNc1ncnc2sc3c(c12)CCC3)c1ccccc1O is 538

The reported selectivity ratio of the compound C/C(=N/Nc1ncnc2sc(C)c(C)c12)c1ccccc1O was 244

Notebook: O=C(NNc1ncnc2sc3c(c12)CCCC3)c1ccccc1O , selectivity ratio read as 233

The compound listed as COc1ccc(-c2c3c(nc4sc5c(O)nc(C)nc5c24)CCC3)cc1 shows selectivity ratio equal to 6.1

Record O=C(NNc1ncnc2sc3c(c12)CCCC3)c1ccc[nH]1 , field selectivity ratio: 1.1

New cases:
Measured selectivity ratio, CCOc1cccc(C(=O)Nc2cc(C(=O)OC)ccc2N2CCN(CC)CC2)c1 : 1.6

Noted for O=C(NNc1ncnc2sc3ccccc3c12)c1ccccn1 : its selectivity ratio reads 3.3

selectivity ratio recorded for this compound, O=C(NNc1ncnc2sc3ccccc3c12)c1cnccn1 , is 18.5

selectivity ratio reading for C/C(=N/Nc1ncnc2sccc12)c1ccccc1O : 17.2

Input C/C(=N\Nc1ncnc2sc3c(c12)CCCC3)c1ccccc1O . Output selectivity ratio: 59.2

selectivity ratio for c1ccc2c(Nc3ncnc4sc5c(c34)CCCC5)cccc2c1 is 8.7

Just so you know, measured selectivity ratio for CC(=O)Nc1ccc(/C=C2\C=C(C(O)c3ccc(NC(C)=O)cc3)c3ccccc32)cc1 (configuration not stated) came out at 2.3

Entry under test: C/C(=N/Nc1ncnc2sccc12)c1cc(O)ccc1O . Its selectivity ratio was 81

Reported selectivity ratio for C/C(=N/Nc1ncnc2sccc12)c1cnccn1 was 1.8

Quick note, selectivity ratio for O=C(NNc1ncnc2sc3c(c12)CCCC3)c1ccco1 landed at 1.2

The compound listed as CCC[C@H](NC(=O)[C@@H]1[C@H]2CCC[C@H]2CN1C(=O)[C@@H](NC(=O)[C@@H](NC(=O)c1cnccn1)C1CCCCC1)C(C)(C)C)C(=O)C(=O)NC1CC1 has a reported selectivity ratio of 58.8

// sample C/C(=N\Nc1ncnc2sc3c(c12)CCCC3)c1nc2ccccc2[nH]1 , its selectivity ratio was 15.4

Recorded selectivity ratio (compound COC(=O)c1ccc(N2C(=O)CC(S/C(=N\c3ccccc3)NCc3ccc4c(c3)OCO4)C2=O)cc1 (configuration not stated) ): 4.9
